assay: The clearance was measured in dogs after intravenous administration of 1 mg/kg dose; assay type: ADME, organism-based, Canis lupus familiaris; design: dose 1 mg/kg, route intravenous; settings: dog, in vivo
parameter.measured: clearance (mL/min/kg)

>>> test_result("COCCN(CCOC)c1nc(C)nc2c1nnn2-c1ccc(C(C)C)cc1Br")
7.97
>>> test_result("CCC(COC)Nc1nc(C)nc2c1nnn2-c1ccc(C(C)C)cc1Br (stereo in doubt; 4x)")
7.38
>>> test_result("CCCCN(CC)c1nc(C)nc2c1nnn2-c1ccc(C(C)C)cc1Br")
9.25
>>> test_result("COCCN(Cc1ccccc1)c1nc(C)nc2c1nnn2-c1ccc(C(C)C)cc1Br")
8.72

====

Below, each entry is listed alongside its reported Ki.
target: Corticotropin-releasing factor receptor 1 (Homo sapiens); experiment: Binding affinity to recombinant human Corticotropin releasing factor receptor 1 (hCRF1) expressed in 293EBNA cells
Sequence (P34998 whole entry): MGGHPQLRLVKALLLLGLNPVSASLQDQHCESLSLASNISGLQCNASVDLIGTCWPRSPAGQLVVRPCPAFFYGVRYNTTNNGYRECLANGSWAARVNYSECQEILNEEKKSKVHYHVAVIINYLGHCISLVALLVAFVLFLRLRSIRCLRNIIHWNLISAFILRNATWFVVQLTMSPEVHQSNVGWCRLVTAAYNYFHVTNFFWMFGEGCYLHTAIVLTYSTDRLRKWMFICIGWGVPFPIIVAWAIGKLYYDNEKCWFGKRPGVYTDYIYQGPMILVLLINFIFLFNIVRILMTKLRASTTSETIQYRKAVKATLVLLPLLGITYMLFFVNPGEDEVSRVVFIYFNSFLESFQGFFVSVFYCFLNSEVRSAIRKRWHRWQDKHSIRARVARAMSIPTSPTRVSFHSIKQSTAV
parameter.measured: Ki

>>> test_result("COCCN(Cc1ccccc1)c1nc(C)nc2c1nnn2-c1ccc(C(C)C)cc1Br")
"5 nM"
>>> test_result("CCCCN(CCCC)c1nc(C)nc2c1nnn2-c1ccc(C(C)C)cc1Br")
"32.5 nM"
>>> test_result("CCC(COC)Nc1nc(C)nc2c1nnn2-c1c(C)cc(C)cc1C (stereo not drawn)")
"59.4 nM"
>>> test_result("COCCN(CCOC)c1nc(C)nc2c1nnn2-c1ccc(C(C)C)cc1")
"3920 nM"
>>> test_result("CCCCN(CC)c1nc(C)nc2c1nnn2-c1c(C)cc(C)cc1C")
"27.5 nM"
>>> test_result("COCCN(CCOC)c1nc(C)nc2c1c(C)c(C)n2-c1c(C)cc(C)cc1C")
"7.1 nM"
>>> test_result("CCC(CC)Oc1nc(C)nc2c1nnn2-c1ccc(C(C)C)cc1Br")
"1.9 nM"
>>> test_result("COCCN(CCOC)c1nc(C)nc2c1ncn2-c1c(C)cc(C)cc1C")
"20.7 nM"
>>> test_result("CCCCN(CC)c1nc(C)nc2c1ncn2-c1c(Cl)cc(OC)cc1OC")
"5.2 nM"
>>> test_result("CCCCN(CC)c1nc(C)nc2c1c(C)cn2-c1c(C)cc(C)cc1C [CP-154526]")
"1.61 nM"
>>> test_result("COCCN(CCOC)c1nc(C)nc2c1nnn2-c1c(Br)cc(OC)cc1N(C)C")
"48.2 nM"
>>> test_result("CCCCN(CC)c1nc(C)nc2c1ncn2-c1ccc(C(C)C)cc1Br")
"4.3 nM"
>>> test_result("COCCN(CCOC)c1nc(C)nc2c1nnn2-c1ccc(N(C)C)cc1Br")
"10.5 nM"
>>> test_result("CCCCN(CC)c1nc(C)nc2c1nc(C(F)(F)F)n2-c1ccc(C(C)C)cc1Br")
"1.4 nM"
>>> test_result("CCCCN(CC)c1nc(C)nc2c1nnn2-c1ccc(SC)cc1Br")
"10.6 nM"
>>> test_result("COCCN(CCOC)c1cc(C)nc2c1nc(C)n2-c1ccc(C(C)C)cc1Br")
"9.8 nM"
>>> test_result("CCC(Nc1nc(C)nc2c1nnn2-c1ccc(C(C)C)cc1Br)C(=O)OC (stereo not drawn)")
"19.4 nM"
>>> test_result("COCCN(CCOC)c1nc(C)nc2c1nc(C)n2-c1ccc(C(C)C)cc1Br")
"6.7 nM"
>>> test_result("CCCCN(CC)c1nc(C)nc2c1nnn2-c1ccc(N(C)C)cc1C(F)(F)F")
"15.4 nM"
>>> test_result("COCCN(CCOC)c1nc(C)nc2c1ncn2-c1ccc(C(C)C)cc1Br")
"5.9 nM"
>>> test_result("CCCCc1nc2c(N(CC)CCCC)nc(C)nc2n1-c1c(Cl)cc(OC)cc1OC")
"22 nM"
>>> test_result("CCCC(Nc1nc(C)nc2c1nnn2-c1ccc(C(C)C)cc1Br)C(=O)N(C)C (stereo not drawn)")
"235 nM"
>>> test_result("CCCCN(CC)c1nc(C)nc2c1nnn2-c1ccc(S(C)(=O)=O)cc1Br")
"100 nM"
>>> test_result("CCCCN(CC)c1cc(C)nc2c1nc(C)n2-c1ccc(C(C)C)cc1Br")
"3.9 nM"
>>> test_result("CCN(CCOC)c1nc(C)nc2c1ncn2-c1ccc(C(C)C)cc1Br")
"9.2 nM"
>>> test_result("CCCCN(CC)c1nc(C)nc2c1nnn2-c1ccc(Br)cc1Br")
"20.4 nM"
>>> test_result("CCN(CC)c1nc(C)nc2c1nnn2-c1ccc(C(C)C)cc1Br")
"25.3 nM"
>>> test_result("CCCC(CCC)Nc1nc(C)nc2c1ncn2-c1ccc(C(C)C)cc1Br")
"3.6 nM"
>>> test_result("COCCN(CCOC)c1nc(C)nc2c1nnn2-c1ccc(N(C)C)cc1C(F)(F)F")
"23.5 nM"
>>> test_result("CCCCC(CC)Nc1nc(C)nc2c1ncn2-c1ccc(C(C)C)cc1Br (stereo not drawn)")
"5.1 nM"
>>> test_result("COCCN(CCOC)c1nc(C)nc2c1nnn2-c1c(C)cc(C)cc1C")
"24.1 nM"
>>> test_result("CCC(CC)Oc1nc(C)nc2c1ncn2-c1ccc(C(C)C)cc1Br")
"3.5 nM"
>>> test_result("COCCN(Cc1cccnc1)c1nc(C)nc2c1nnn2-c1ccc(C(C)C)cc1Br")
"48.5 nM"
>>> test_result("CCCCN(CC)c1ncnc2c1nnn2-c1ccc(C(C)C)cc1Br")
"287 nM"
>>> test_result("CCC(COC)Nc1nc(C)nc2c1nnn2-c1ccc(C(C)C)cc1Br (stereo in doubt; 4y)")
"7.5 nM"
>>> test_result("CCCCN(CCCC)c1nc(C)nc2c1ncn2-c1ccc(C(C)C)cc1Br")
"6.1 nM"
>>> test_result("CCN(c1nc(C)nc2c1nnn2-c1ccc(C(C)C)cc1Br)C(COC)COC")
"123 nM"
>>> test_result("CCCCN(CC)c1nc(C)nc2c1nnn2-c1ccc(C(C)C)cc1Br")
"7.5 nM"
>>> test_result("CCN(CCOC)c1nc(C)nc2c1nnn2-c1c(C)cc(C)cc1C")
"20.7 nM"
>>> test_result("COCCN(CCOC)c1nc(C)nc2c1nnn2-c1ccc(C(C)C)cc1SC")
"15.3 nM"
>>> test_result("CCOCC(COCC)Oc1nc(C)nc2c1nnn2-c1ccc(C(C)C)cc1Br")
"39.7 nM"
>>> test_result("CCCCN(CC)c1nc(C)nc2c1nnn2-c1c(Cl)cc(OC)cc1OC")
"4.4 nM"
>>> test_result("CCN(CC)c1nc(C)nc2c1ncn2-c1ccc(C(C)C)cc1Br")
"12.4 nM"
